Assay: recombinant UMI read abundance after kanamycin selection (control-corrected) (log10(CPM+1)); higher = more efficient recombination; extreme values may be limits of the assay; sequences stand for … in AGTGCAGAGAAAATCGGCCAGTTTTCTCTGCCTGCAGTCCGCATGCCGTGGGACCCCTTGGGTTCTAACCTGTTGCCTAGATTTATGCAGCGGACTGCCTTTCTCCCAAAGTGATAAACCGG…AGGTTGGTTTCACT; site = the 11-nt donor;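 also: IS621 bridge recombinase in Escherichia coli cells against a fixed T5 target plasmid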
Please provide measured recombinant UMI read abundance (log10) for the entries that follow.
Answers are plain numbers.

Solved cases (4 shown):
[[record]]
seq_text = "AGGTCAGCATGGACCGGTTTTCCCGGTAATCCGTATTTGAT (site AGGTCAGCTAT)"
test_value = 1.84

[[record]]
seq_text = "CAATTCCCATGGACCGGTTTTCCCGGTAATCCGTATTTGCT (site CAATTCCCTTG)"
test_value = 0.615

[[record]]
seq_text = "TGTCTAACATGGACCGGTTTTCCCGGTAATCCGTATTTGGC (site TGTCTAACTGC)"
test_value = 0.011

[[record]]
seq_text = "TGTGATTCATGGACCGGTTTTCCCGGTAATCCGTATTTGTG (site TGTGATTCTCA)"
test_value = 0.304


List the reported recombinant UMI read abundance (log10) of each sequence below.
1. GGCCGTACATGGACCGGTTTTCCCGGTAATCCGTATTTGCT (site CGCCGTACTAG)
2. CGGGAAACATGGACCGGTTTTCCCGGTAATCCGTATTTGAT (site CGGGAAGCTAT)
3. GGTAGGTCATGGACCGGTTTTCCCGGTAATCCGTATTTGTT (site GGTACGTCTAA)
4. CAGAATCCATGGACCGGTTTTCCCGGTAATCCGTATTTGTT (site CGGAATCCTAA)

[0.413, 2.21, 0.0163, 0.0121]

List the reported recombinant UMI read abundance (log10) of each sequence below.
1. CTAGGACCATGGACCGGTTTTCCCGGTAATCCGTATTTGAC (site CTAGGACCTGT)
2. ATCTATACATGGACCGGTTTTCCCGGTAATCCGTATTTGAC (site ATCGATACTGT)
3. AGCTTCCCATGGACCGGTTTTCCCGGTAATCCGTATTTGTG (site AGGTTCCCTCA)
4. CGGTCGTCATGGACCGGTTTTCCCGGTAATCCGTATTTGCA (site CGGTCGTCTTG)
5. CCAGCGCCATGGACCGGTTTTCCCGGTAATCCGTATTTGTG (site CTAGCGCCTCA)
6. CCCTTCACATGGACCGGTTTTCCCGGTAATCCGTATTTGGG (site CCCTTCGCTCC)

[0, 0, 0.00784, 1.71, 0, 0.0224]

Cited source: the supplement of paper PMC11208160
